test system: TK-10 renal; assay: NCI tumour cell line growth inhibition, 48 h
Quantity: TGI

Prompt line: Request the reported TGI associated with CC(C)(C)NCC(O)COc1c(Br)c(Br)c(Br)c2c1OC(C)(C)C2 (stereo not given)
Response line: 3.52 µM

Prompt line: Would you mind telling me what TGI value was observed for `O=C1c2ccccc2C(=O)C12CCc1ccccc12` ?
Response line: > 100 µM

Prompt line: So what does the record say about TGI for `NC(=O)CSc1c2cc(O)ccc2nc2ccc(O)cc12` ?
Response line: > 10 µM

Prompt line: Given COc1c2c(nc3ccccc13)-c1cc(C(CC(=O)OC(C)(C)C)C(=O)OC(C)C)c(CO)c(=O)n1C2 (stereo not given) , state its recorded TGI.
Response line: > 100 µM

Prompt line: So what's the measured TGI for this one? CC(O)c1cc2c(s1)C(=O)c1c(C(C)O)csc1C2=O (stereo not given)
Response line: 1.79 µM

Prompt line: Using the record for `Cc1ccc(-c2c(-c3ccccc3)[nH]c(C)c2C(=O)ONC(=O)c2ccccc2)cc1` , report its TGI.
Response line: 18.2 µM

Prompt line: # query: TGI of entry `N=c1ccc2nc3ccc(N)cc3sc-2c1`
Response line: 35.5 µM

Prompt line: I'd like to know its TGI. The compound in question is `O=C(c1ccc2ccccc2c1)c1nc2cc(F)ccc2[n+]([O-])c1C(F)(F)F`
Response line: 92.2 µM

Prompt line: Return reported TGI; argument: `COc1cc(OC)c2sc(-c3ccc(-n4cncc4-c4ccc(OC)c(OC)c4)cc3)nc2c1`
Response line: > 100 µM

Prompt line: Recorded TGI for COC(=O)C1Cc2c(OC)ccc(OC)c2C(O)C1C(=O)OC (stereo not given) , please?
Response line: > 100 µM

Every entry's value here was drawn from PubChem BioAssay (NCI).
